biological target: Aspartate--tRNA(Asp/Asn) ligase (Mycobacterium tuberculosis (strain ATCC 25618 / H37Rv)) (UniProt P9WFW3); test: Assay for Asp RNA synthetase-1 from Mycobacterium tuberculosis; format: functional; parameters: scale not given: direction of the effect not stated beside the values; conditions: 30 µM; note: in the data most compounds retested in dose-response had high values
Sequence (P9WFW3 whole entry): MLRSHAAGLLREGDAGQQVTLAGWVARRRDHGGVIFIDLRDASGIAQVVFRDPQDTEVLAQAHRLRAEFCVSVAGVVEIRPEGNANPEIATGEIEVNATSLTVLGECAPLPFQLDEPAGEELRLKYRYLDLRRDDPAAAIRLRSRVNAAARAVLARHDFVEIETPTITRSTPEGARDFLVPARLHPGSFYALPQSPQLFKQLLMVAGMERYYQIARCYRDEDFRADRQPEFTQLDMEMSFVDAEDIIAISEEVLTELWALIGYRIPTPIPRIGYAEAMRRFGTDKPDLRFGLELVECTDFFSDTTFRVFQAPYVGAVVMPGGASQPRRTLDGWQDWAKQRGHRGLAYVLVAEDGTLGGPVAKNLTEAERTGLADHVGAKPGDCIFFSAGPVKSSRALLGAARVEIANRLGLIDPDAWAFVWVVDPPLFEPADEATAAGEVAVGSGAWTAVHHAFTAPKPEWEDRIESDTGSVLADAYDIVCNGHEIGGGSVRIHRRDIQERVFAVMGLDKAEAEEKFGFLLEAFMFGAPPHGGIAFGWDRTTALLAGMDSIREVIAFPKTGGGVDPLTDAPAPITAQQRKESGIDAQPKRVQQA
Property Name: Percent Effect (%)
Enter your answer as a number in %; do not include the unit.

>>> df
                                   compound  endpoint_value
0  CC(=O)N1CCC2(CCCN(C(=O)c3ccccc3)C2)C1 (stereo unspecified)           -1.28
1  Cc1ccc(SCC(=O)NS(=O)(=O)c2ccc3c(c2)OCCO3)cc1             3.3
2  O=C(CCCc1ccc(F)cc1)N1C[C@@H](CN2CCOCC2)[C@@H](CO)C1            5.03

Prompt: Percent Effect for Cc1ncnc2c1CCN(c1cc(C(F)(F)F)ncn1)CC2 ?
Response: 3.84

Prompt: Then what about the compound Cc1nn(C)c(N2CCOCC2)c1CNC(C)c1cccnc1 (stereo unspecified) ?
Response: -8.69

Prompt: O=C(c1cccc(F)c1)N1CCOC(c2nc(-c3ncccn3)no2)C1 (stereo unspecified) ?
Response: -5.54

Prompt: Repeat with c1ccc(-c2nnc(CNCCn3cccn3)o2)cc1
Response: -5.08

Prompt: Another: Cc1ccc2oc(C(=O)N3CCC(C(=O)N4CCCC4)CC3)cc2n1
Response: 1.57

Prompt: What about this compound? Cn1cccc1C(CNC(=O)c1ccc(F)cc1F)N1CCCCCC1 (stereo unspecified)
Response: 1.24

Prompt: Then what about the compound Cc1ccn(-c2ccccc2NCc2ncc[nH]2)n1 ?
Response: -0.604

Prompt: Now the compound O=C(NC1CC1)[C@H]1C[C@H]2OCC[C@H]2N(CC2CC2)C1
Response: 3.52

----------
tested on: Trypanosoma cruzi; test: Trypanosoma cruzi phosphomannomutase and mannose-1-phosphate guanylyltransferase assay; type: functional; design: scale not given: direction of the effect not stated beside the values; details: 10 µM
Property Name: Percent Effect (%)
Supply the numeric figure in %, leaving out any unit text.

Field: example entries. Status: answers known.
                                   compound  unit  endpoint_value
0  CC(Cn1cccn1)NCc1nc(-c2cccs2)no1 (centres undefined)     %            3.08
1  CN(CCc1ccc(F)cc1)Cc1nc2c(cnn2C)c(=O)[nH]1     %            2.33
2  CC1=N[C@@]2(CC[C@@H]3CNC[C@@H]32)C(=O)N1CC(C)C     %           -6.35
3  CC(C)c1nccc([C@H]2C[C@@H]3CCN(Cc4ccco4)C[C@H]3O2)n1     %            4.58
4  CN(C)c1ncc2c(n1)C1(CCN(Cc3ccccc3)C1)COC2 (centres undefined)     %            2.78

Prompt: Given the entry Cc1cccc(CO[C@@H]2CC[C@H]3[C@H]2OCCN3Cc2ccsc2)n1 , report its measured Percent Effect.
Response: 4.44

Prompt: And then O=C(NCC1CC1)[C@H]1C[C@@H]2[C@@H](C1)OCCN2Cc1cccnc1 , what is it?
Response: -1.93

Prompt: O=C1[C@H]2CN(Cc3ccoc3)C[C@H]2CN1Cc1ccncc1 , same question.
Response: -4.23

Prompt: Similarly, COCC(=O)NC(C)Cc1cccc(OC)c1 (centres undefined) ?
Response: 6.77
